B1: ALDH8A1 (parent)
chain: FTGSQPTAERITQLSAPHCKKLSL

- Variants of: B1
- PROCEDURE SUMMARY: protein stability index of a GFP-peptide fusion (GPS, HEK-293T) (PSI 1-6); higher = more stable;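 also: lentivirally expressed fusions sorted by FACS into six bins by GFP to DsRed ratio, PSI derived from sequencing read proportions per bin multiplied by bin number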
- CONDITION PARAMETERS: c terminus: a fixed tail appended
MEASUREMENT TYPE: protein stability index

>>> df
    mutation_name         measurement_type  observed_value
 0           S15E  protein stability index            2.37
 1           L14C  protein stability index            1.79
 2           L24G  protein stability index            2.67
 3           L24C  protein stability index            2.52
 4           Q13D  protein stability index            2.61
 5            G3C  protein stability index            2.68
 6           K21C  protein stability index            1.59
 7            G3Q  protein stability index            2.38
 8           R10V  protein stability index            1.63
 9           A16V  protein stability index            2.27
10            T7C  protein stability index               2
11            T2W  protein stability index            2.53
12            T2N  protein stability index            3.41
13           T12F  protein stability index            2.86
14           L14P  protein stability index            2.77
15            G3M  protein stability index            2.56
16            E9R  protein stability index            1.96
17           Q13L  protein stability index            2.08
18            P6M  protein stability index            2.56
19           C19L  protein stability index            1.91
20           Q13W  protein stability index            2.67
21            P6L  protein stability index            2.04
22           S15W  protein stability index            2.39
23            P6V  protein stability index            2.07
24            A8F  protein stability index            1.42
25            T2M  protein stability index            3.07
26           K21L  protein stability index            1.84
27            E9T  protein stability index            1.87
28           I11G  protein stability index            2.09
29           L24T  protein stability index            2.56
30            G3W  protein stability index            2.66
31           T12R  protein stability index            2.89
32           L14E  protein stability index            3.18
33           L22P  protein stability index            2.26
34           L22C  protein stability index            2.27
35           T12L  protein stability index            1.79
36           K21T  protein stability index            2.06
37            S4I  protein stability index            2.36
38           H18W  protein stability index            1.85
39           K21E  protein stability index            2.65
40           A16F  protein stability index            2.33
41            P6A  protein stability index            1.94
42           L14G  protein stability index            2.56
43           R10F  protein stability index             1.9
44            F1I  protein stability index            3.86
45           P17L  protein stability index            1.78
